- system name: T1, human BR3 expressed on cells (human, UniProt Q96RJ3 1-184)
- T1 construct: whole, on cells; also called BR3 on BJAB cells; cell surface BR3
- procedure summary: BJAB cells, competition with biotin-BAFF
measured parameter: pIC50
In plain terms, pIC50 is the concentration in mol/L turned into minus its base-10 logarithm.

Please review the following examples before continuing.
1) chimeric 2.1 IgG (antibody, V domains shown, also called Ch 2.1 IgG; ch 2.1) VH: EVQLQESGPSLVKPSQTLSLTCSVTGDSITRGYWNWIRKFPGNKLEFMGYINYSGTTYYNPSLKSRISITRDTSKNQYYLQLNSVTTEDTATYYCATPHTYGAMDYWGQGTTLTVSA VL: DIVLTQSPVSLAVSLGQRATISCRASESVDDYGISFMHWYQQKPGQPPKLLIYRASDLESGIPARFSGSGSGTDFTLTINPVETDDVAIYYCQQTSKDPWTFGGGT	9.70
2) Hu2.1-46 IgG (antibody, V domains shown, humanized IgG; also called h2.1-46) VH: EVQLVESGGGLVQPGGSLRLSCAASGDSITRGYWNWVRQAPGKGLEWVGYINYSGTTYYNPSLKSRFTISRDTSKNTFYLQMNSLRAEDTAVYYCANSNFYGAMDYWGQGTLVTVSS VL: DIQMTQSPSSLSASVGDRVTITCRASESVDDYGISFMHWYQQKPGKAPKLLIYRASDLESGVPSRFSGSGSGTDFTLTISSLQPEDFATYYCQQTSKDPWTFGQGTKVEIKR	9.72

Here is the next item to consider.
So what does the record say about pIC50 for h9.1-73 IgG (antibody, V domains shown) VH: EVQLVESGGGLVQPGGSLRLSCAASGLPMAGFYTSWVRQAPGKGLEWVGFIRDKANGYTTEYNPSVKGRFTISADTSKNTAYLQMNSLRAEDTAVYYCAQVRRALDYWGQGTLVTVSS VL: DIQMTQSPSSLSASVGDRVTITCKSSQSLLYSSNQNNYLAWYQQKPGKAPKLLIYWAQHLDSGVPSRFSGSGSGTDFTLTISSLQPEDFATYYCQQYYTYPYTFGQGTKVEIKR ?
8.75
